# TARGET_OR_SYSTEM: DNA polymerase beta (Homo sapiens)
# ASSAY_INFO: qHTS Assay for Inhibitors of DNA Polymerase Beta
# CONDITION: Pol beta primer extension/strand displacement, fluorescence kinetic; series mostly up to 114 µM
Screen size: about 340,000 compounds; about 4,500 (1.3%) were called active. About 5% were inconclusive and are not listed. Calls follow the shape of the dose curve; as a rule, active = well fitted inhibition curve with a large enough effect; inconclusive = small, poorly fitted or top-dose-only effect, or another doubt; inactive = no such curve, though single readings can be large or run the other way. The full list was thinned out, with actives kept by preference.
Outcomes: Yes (active), No (inactive)

>>> class("C/C(=N\\NS(=O)(=O)c1ccc(Br)cc1)c1cccs1")
"No"
>>> class("Cc1ccccc1N1CC(C(=O)Nc2nnc(SCCC3OCCO3)s2)CC1=O (stereo not given)")
"Yes"
>>> class("O=C(Nc1ccc2nc(SCCOc3ccccc3)sc2c1)c1ccco1")
"No"
>>> class("Cc1ccc(C(=O)NNC(=O)c2cc3cc4ccccc4nc3s2)cc1")
"Yes"
>>> class("CC(C)c1cc(C(=O)N/N=C/C(Br)=C/c2ccccc2)n[nH]1")
"No"
>>> class("Cc1cc2c(cc3c(SCc4cccc(Cl)c4)nnc(C)n32)o1")
"No"
>>> class("Cc1ccc(-c2cc(C(=O)NN)n[nH]2)o1")
"No"
>>> class("CS(=O)(=O)c1ccc2c(c1)SC1=NC(=O)/C(=C/c3ccco3)C(=N)N12")
"Yes"
>>> class("S=C(NCc1ccc2c(c1)OCO2)NCc1ccco1")
"No"
>>> class("C/C(=N\\Nc1ncc(Cl)cc1Cl)c1cccs1")
"No"
